Listed below: melting point values for each entry.
recorded-endpoint: melting point

>  <compound>
CCCC(=O)Nc1nc2ccc(N)cc2s1

>  <observed-value>
182 to 184 °C

$$$$
>  <compound>
COc1cc(C=O)cc(Cl)c1O

>  <observed-value>
162 to 166 °C

$$$$
>  <compound>
Cc1ccc(-n2c(C)c(C)c3c(N)ncnc32)cc1

>  <observed-value>
202 to 206 °C

$$$$
>  <compound>
CCOC(=O)c1ccc(S(=O)(=O)Cl)cc1

>  <observed-value>
49 to 51 °C

$$$$
>  <compound>
O=C1C=C2NCCC=C2O1

>  <observed-value>
109 to 111 °C

$$$$
>  <compound>
NNc1ccc(S(=O)(=O)Nc2ccccn2)cn1

>  <observed-value>
218 to 220 °C

$$$$
>  <compound>
Cc1c(C(=O)O)cnn1CCC#N

>  <observed-value>
159 to 161 °C

$$$$
>  <compound>
Clc1ccc(Cc2nn[nH]n2)cc1Cl

>  <observed-value>
153 to 155 °C

$$$$
>  <compound>
CCOC(=O)c1c(Cl)nc2ccccc2c1C

>  <observed-value>
109 to 111 °C

$$$$
>  <compound>
CC1=NS(=O)(=O)NC(C)=C1CC(=O)O

>  <observed-value>
185 to 187 °C

$$$$
>  <compound>
CN(C)C(=O)c1ccccc1C(=O)O

>  <observed-value>
124 to 126 °C

$$$$
>  <compound>
Cc1ccc(-c2nn(-c3ccccc3)cc2C(=O)O)o1

>  <observed-value>
160 to 163 °C

$$$$
>  <compound>
O=c1[nH]cnc2cnc(Cl)cc12

>  <observed-value>
309 to 311 °C

$$$$
>  <compound>
NNC(=O)Cn1ccc2ccccc21

>  <observed-value>
176 to 178 °C

$$$$
>  <compound>
Nc1ccccc1OCCN1CC(=O)Nc2ccccc21

>  <observed-value>
147 to 149 °C

$$$$
>  <compound>
O=C(O)Cc1csc(-c2cccc(Cl)c2)n1

>  <observed-value>
104 to 109 °C

$$$$
>  <compound>
O=c1[nH]cnc2cc(Br)ccc12

>  <observed-value>
262 to 264 °C

$$$$
>  <compound>
CCCc1ccc(-c2ccc(N)cc2)cc1

>  <observed-value>
64 to 66 °C

$$$$
>  <compound>
O/N=C/c1c(Cl)ncn1-c1ccccc1

>  <observed-value>
179 to 181 °C

$$$$
>  <compound>
COc1cc(C)c(C(C)=O)cc1OC

>  <observed-value>
73 to 75 °C

$$$$
>  <compound>
c1c[nH]c(CN2CCNCC2)n1

>  <observed-value>
153 to 155 °C

$$$$
>  <compound>
O=C(O)c1cccc(OCC(F)(F)F)n1

>  <observed-value>
138 to 140 °C

$$$$
>  <compound>
CCSc1ccc(C(=O)O)cc1

>  <observed-value>
145 to 147 °C

$$$$
>  <compound>
NS(=O)(=O)c1ccc(C(=O)O)o1

>  <observed-value>
212 to 214 °C

$$$$
>  <compound>
O=C(O)Cc1ccc([N+](=O)[O-])cc1F

>  <observed-value>
162 to 164 °C

$$$$
>  <compound>
NS(=O)(=O)c1ccc(N2CCOCC2)c(C(=O)O)c1

>  <observed-value>
277 to 279 °C

$$$$
>  <compound>
O=[N+]([O-])c1cc(Br)ccc1I

>  <observed-value>
84 to 86 °C

$$$$
>  <compound>
CCN(CC)S(=O)(=O)c1cccc(C(=O)NC(C(=O)O)C(C)C)c1 (stereo not given)

>  <observed-value>
110 to 112 °C

$$$$
>  <compound>
O=Cc1ccc(-c2cccnc2)o1

>  <observed-value>
104 to 106 °C

$$$$
>  <compound>
Sc1nnc(Nc2ccc(Oc3ccccc3)cc2)s1

>  <observed-value>
183 to 185 °C

$$$$
>  <compound>
COCCNC(=O)CC#N

>  <observed-value>
78 to 80 °C

$$$$
>  <compound>
O=c1[nH]c(S)nc2c1cnn2-c1ccccc1

>  <observed-value>
110 to 113 °C

$$$$
>  <compound>
NC(=O)Cc1ccc2c(c1)CCC2

>  <observed-value>
166 to 168 °C

$$$$
>  <compound>
NNC(=O)Nc1ccc2c(c1)OCO2

>  <observed-value>
164 to 166 °C

$$$$
>  <compound>
COc1ccc2[nH]c3c(c2c1)CC(C)CC3 (stereo not given)

>  <observed-value>
59 to 61 °C

$$$$
>  <compound>
O=C(O)Cc1csc(-c2ccccc2Cl)n1

>  <observed-value>
105 to 109 °C

$$$$
>  <compound>
O=S(=O)(Cl)C=Cc1ccc(F)cc1

>  <observed-value>
110 to 112 °C

$$$$
>  <compound>
N#CCc1cccc(C(=O)O)c1

>  <observed-value>
166 to 168 °C

$$$$
>  <compound>
O=C(Nc1nc2ccccc2s1)OCC(F)(F)F

>  <observed-value>
224 to 226 °C

$$$$
>  <compound>
O=C(O)c1ccc(-c2nc(C3CC3)n[nH]2)cc1

>  <observed-value>
237 to 239 °C

$$$$
>  <compound>
Cc1cccc(Cn2cccc(C(=O)O)c2=O)c1

>  <observed-value>
189 to 191 °C

$$$$
>  <compound>
CC(=O)Nc1cccc(CO)c1

>  <observed-value>
113 to 115 °C

$$$$
>  <compound>
CCc1nn2c(=O)cc(CCl)nc2s1

>  <observed-value>
97 to 99 °C

$$$$
>  <compound>
O=S(=O)(c1ccc(Cl)nc1)N1CCC(Cc2ccccc2)CC1

>  <observed-value>
153 to 157 °C

$$$$
>  <compound>
CC(C)(C)c1ccc(N)c(C(=O)O)c1

>  <observed-value>
144 to 146 °C

$$$$
>  <compound>
Nc1cc(S(=O)(=O)N2CCCCC2)ccc1Cl

>  <observed-value>
129 to 131 °C

$$$$
>  <compound>
N#Cc1cccc(COc2ccc(N)cc2F)c1

>  <observed-value>
69 to 71 °C

$$$$
>  <compound>
CC(C)(C)OC(=O)NCc1cccc(O)c1

>  <observed-value>
79 to 81 °C

$$$$
>  <compound>
Cc1ccc(S(=O)(=O)NC(CCl)c2ccccc2)cc1 (stereo not given)

>  <observed-value>
174 to 176 °C

$$$$
>  <compound>
COC(=O)C(N)c1ccc(F)cc1F (stereo not given)

>  <observed-value>
39 to 41 °C

$$$$
>  <compound>
O=C(O)c1cc(N2CCCC2=O)ccc1F

>  <observed-value>
254 to 256 °C

$$$$
>  <compound>
O=C(O)c1cnc2c(cnn2Cc2ccccc2)c1

>  <observed-value>
210 to 212 °C

$$$$
>  <compound>
O=C(O)C1CC2(CCCC2)C1

>  <observed-value>
29 to 31 °C

$$$$
>  <compound>
COc1ccccc1C(C)NC(=O)C(C)Cl (stereo not given)

>  <observed-value>
109 to 111 °C

$$$$
>  <compound>
COC(=O)c1ccc(CS(N)(=O)=O)cc1

>  <observed-value>
138 to 140 °C

$$$$

---

Reported melting point by item:

>  <item-smiles>
O=Cc1ccc(OCC(=O)Nc2ccccc2)cc1

>  <melting point>
125 to 127 °C

$$$$
>  <item-smiles>
Cc1cc(C)nc(SCC(=O)O)n1

>  <melting point>
130 to 132 °C

$$$$
>  <item-smiles>
CCOC(=O)N1CCC(NC(N)=O)CC1

>  <melting point>
203 to 205 °C

$$$$
>  <item-smiles>
O=C(Nc1ccc(N2CCOCC2)nc1)OCC(F)(F)F

>  <melting point>
204 to 206 °C

$$$$
>  <item-smiles>
O=C(O)Cc1c[nH]c2ncccc12

>  <melting point>
215 to 217 °C

$$$$
>  <item-smiles>
COc1ccc(-c2cnc(CCC(=O)O)o2)cc1

>  <melting point>
158 to 160 °C

$$$$
>  <item-smiles>
COc1ccc(Br)c(S(=O)(=O)Cl)c1

>  <melting point>
63 to 65 °C

$$$$
>  <item-smiles>
NC(=O)c1ccc(N2CCSCC2)c(N)c1

>  <melting point>
196 to 198 °C

$$$$
>  <item-smiles>
NS(=O)(=O)c1ccc(S(=O)(=O)Cl)c(F)c1

>  <melting point>
111 to 113 °C

$$$$
>  <item-smiles>
N#CCC(=O)Nc1ccncc1

>  <melting point>
181 to 183 °C

$$$$
>  <item-smiles>
O=CN1CC(=O)NC(=O)C1

>  <melting point>
213 to 215 °C

$$$$
>  <item-smiles>
COc1ccc2cc(C(=O)O)[nH]c2c1

>  <melting point>
190 to 192 °C

$$$$
>  <item-smiles>
N=C(N)NCCC(=O)O

>  <melting point>
220 to 224 °C

$$$$
>  <item-smiles>
ClCc1ncc(-c2ccc(Br)cc2)o1

>  <melting point>
80 to 82 °C

$$$$
